SYSTEM_NAME: Adenosine receptor A2 (Homo sapiens)
MEASUREMENT_PROTOCOL: Antagonistic activity against adenosine A2 receptor in human platelets
MEASURED_PROPERTY: Ki (µM)

Ask | What value of Ki has been reported for the following compound? CCCn1c(=O)c2nc(NC3CCCC3)[nH]c2n(CCC)c1=O
Reply | 0.13

Ask | What value of Ki has been reported for the following compound? CCCn1c(=O)c2nc(NC3CCC3)[nH]c2n(CCC)c1=O
Reply | 0.12

The measurements presented in this section are drawn from ChEMBL document CHEMBL1125093.
